- System: M. tuberculosis H37Rv
- Method: Example 9: compound of formula I added to first and second line anti-tuberculosis drugs (survival, lung CFU after 4 weeks)
- Format: in vivo, mice
- Details: no treatment 21 days
Time to 50% mortality overview
Number in days, nothing else.

NC(=O)c1cnccn1 [Z, pyrazinamide] : 21

Bench note: what Time to 50% mortality did `CC[C@@H](CO)NCCN[C@@H](CC)CO` show?
30

Bench note: what Time to 50% mortality did `N[C@@H]1CON=C1O` show?
22

Bench note: what Time to 50% mortality did `Nc1ccc(C(=O)O)c(O)c1` show?
31

###

- Method: Single-dose and steady-state serum pharmacokinetics in the murine model
- Format: in vivo, mice
- Details: mouse, serum, po, 130 mg/kg, serum, Day 1, LZD 130 mg/kg daily oral; read-out: AUC0-24
Endpoint Label: AUC(0-t) (µg·h/mL)
Number in µg·h/mL, nothing else.

Bench note: what AUC(0-t) did `CC(=O)NC[C@H]1CN(c2ccc(N3CCOCC3)c(F)c2)C(=O)O1` show?
164
